tested on: 922993-354-T-J3-PDC complex spheroids, viability, % test/control; experiment: Anticancer human tumor 922993-354-T-J3-PDC patient-derived endometrial carcinoma cell line growth inhibition [CLK]; conditions: second compound 10 µM; first compound 10 µM; active compounds read low
parameter.measured: viability, T/C (%)
Field: numeric (%). Do not append units.

[Q] Given C=C(F)C(=O)N1CCN(c2nc(OCC3CCCN3C)nc3c2CCN(c2cccc4cccc(Cl)c24)C3)CC1CC#N (stereo not drawn) + CNC(=O)c1ccc(Nc2nc(OC3CCCC3)c3c(-c4ccc5nc(C)oc5c4)c[nH]c3n2)c(OC)c1 , state its recorded viability, T/C.
[A] 5.43

[Q] Given CCCS(=O)(=O)Nc1ccc(F)c(C(=O)c2c[nH]c3ncc(-c4ccc(Cl)cc4)cc23)c1F + CN1CCN(c2cc(C(=O)Nc3cc4cc(-c5cnn(C)c5)ccc4cn3)ccn2)CC1 , state its recorded viability, T/C.
[A] 0.25

[Q] Given Nc1ccccc1NC(=O)c1ccc(CNC(=O)OCc2cccnc2)cc1 + CNC(=O)c1ccc(Nc2nc(OC3CCCC3)c3c(-c4ccc5nc(C)oc5c4)c[nH]c3n2)c(OC)c1 , state its recorded viability, T/C.
[A] 5.11

----------
Hi there, I'd appreciate the recorded viability, T/C for every entry that follows.
test system: 922993-354-T-J3-PDC complex spheroids, viability, % test/control; test: Anticancer human tumor 922993-354-T-J3-PDC cell line growth inhibition [CLK]; conditions: second compound 3.16 µM; first compound 0.0316 µM; active compounds read low;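 note: spheroids exposed to the agents for 7 days before readout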
Field: numeric (%). Do not append units.

[Q] Given C=C(F)C(=O)N1CCN(c2nc(OCC3CCCN3C)nc3c2CCN(c2cccc4cccc(Cl)c24)C3)CC1CC#N (stereo not given) + CNC(=O)c1ccc(Nc2nc(OC3CCCC3)c3c(-c4ccc5nc(C)oc5c4)c[nH]c3n2)c(OC)c1 , state its recorded viability, T/C.
[A] 28.3

[Q] Given O=c1[nH]cc(F)c(=O)[nH]1 + CNC(=O)c1ccc(Nc2nc(OC3CCCC3)c3c(-c4ccc5nc(C)oc5c4)c[nH]c3n2)c(OC)c1 , state its recorded viability, T/C.
[A] 33.4

[Q] Given COc1ccc([C@@H](O)c2cc(-c3ncnc4cc(N5CCOCC5)ccc34)c(F)cc2Cl)nn1 + CNC(=O)c1ccc(Nc2nc(OC3CCCC3)c3c(-c4ccc5nc(C)oc5c4)c[nH]c3n2)c(OC)c1 , state its recorded viability, T/C.
[A] 31.8

[Q] Given CC(CO)NC(=O)c1cc(-c2ccc(Cl)cc2)nn(-c2cnn(C)c2)c1=O (stereo not given) + CNC(=O)c1ccc(Nc2nc(OC3CCCC3)c3c(-c4ccc5nc(C)oc5c4)c[nH]c3n2)c(OC)c1 , state its recorded viability, T/C.
[A] 30.5

[Q] Given C#Cc1c(F)ccc2cc(O)cc(-c3ncc4c(N5CC6CCC(C5)N6)nc(OCC56CCCN5CC(F)C6)nc4c3F)c12 (stereo not given) + CNC(=O)c1ccc(Nc2nc(OC3CCCC3)c3c(-c4ccc5nc(C)oc5c4)c[nH]c3n2)c(OC)c1 , state its recorded viability, T/C.
[A] 29.7

----------
system: 922993-354-T-J3-PDC complex spheroids, viability, % test/control; assay: Anticancer human tumor 922993-354-T-J3-PDC cell line growth inhibition [CLK]; conditions: second compound 3.16 µM; first compound 0.1 µM; active = viability on the fitted dose curve at most 10% of control; inactive = the rest;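 note: spheroids exposed to the agents for 7 days before readout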
Output constraint: value belongs to active, inactive

[Q] # fetch the recorded call for CCN1CCN(Cc2ccc(Nc3ncc(F)c(-c4cc(F)c5nc(C)n(C(C)C)c5c4)n3)nc2)CC1 + CNC(=O)c1ccc(Nc2nc(OC3CCCC3)c3c(-c4ccc5nc(C)oc5c4)c[nH]c3n2)c(OC)c1 here
[A] inactive

[Q] # fetch the recorded call for COc1ccc([C@@H](O)c2cc(-c3ncnc4cc(N5CCOCC5)ccc34)c(F)cc2Cl)nn1 + CNC(=O)c1ccc(Nc2nc(OC3CCCC3)c3c(-c4ccc5nc(C)oc5c4)c[nH]c3n2)c(OC)c1 here
[A] inactive

[Q] # fetch the recorded call for COc1c(OCCCN2CCOCC2)ccc2c3n(c(=NC(=O)c4cnc(N)nc4)nc12)CCN3 + CN1CCN(c2cc(C(=O)Nc3cc4cc(-c5cnn(C)c5)ccc4cn3)ccn2)CC1 here
[A] active

[Q] # fetch the recorded call for CC(Nc1ccc2c(c1)OCCn1cc(N3C(=O)OCC3C(F)F)nc1-2)C(N)=O (stereo not given) + CN1CCN(c2cc(C(=O)Nc3cc4cc(-c5cnn(C)c5)ccc4cn3)ccn2)CC1 here
[A] active

[Q] # fetch the recorded call for O=C(c1cc(Cc2n[nH]c(=O)c3ccccc23)ccc1F)N1CCN(C(=O)C2CC2)CC1 + CNC(=O)c1ccc(Nc2nc(OC3CCCC3)c3c(-c4ccc5nc(C)oc5c4)c[nH]c3n2)c(OC)c1 here
[A] inactive

These entries and their values trace back to PubChem BioAssay AID2060606.
